target: Integrin alpha-4/beta-1 (Homo sapiens, UniProt P05556+P13612); experiment: Inhibition of VLA-4 from HL60 lysate in a protein-based ligand binding assay.
Sequence (P05556 whole entry): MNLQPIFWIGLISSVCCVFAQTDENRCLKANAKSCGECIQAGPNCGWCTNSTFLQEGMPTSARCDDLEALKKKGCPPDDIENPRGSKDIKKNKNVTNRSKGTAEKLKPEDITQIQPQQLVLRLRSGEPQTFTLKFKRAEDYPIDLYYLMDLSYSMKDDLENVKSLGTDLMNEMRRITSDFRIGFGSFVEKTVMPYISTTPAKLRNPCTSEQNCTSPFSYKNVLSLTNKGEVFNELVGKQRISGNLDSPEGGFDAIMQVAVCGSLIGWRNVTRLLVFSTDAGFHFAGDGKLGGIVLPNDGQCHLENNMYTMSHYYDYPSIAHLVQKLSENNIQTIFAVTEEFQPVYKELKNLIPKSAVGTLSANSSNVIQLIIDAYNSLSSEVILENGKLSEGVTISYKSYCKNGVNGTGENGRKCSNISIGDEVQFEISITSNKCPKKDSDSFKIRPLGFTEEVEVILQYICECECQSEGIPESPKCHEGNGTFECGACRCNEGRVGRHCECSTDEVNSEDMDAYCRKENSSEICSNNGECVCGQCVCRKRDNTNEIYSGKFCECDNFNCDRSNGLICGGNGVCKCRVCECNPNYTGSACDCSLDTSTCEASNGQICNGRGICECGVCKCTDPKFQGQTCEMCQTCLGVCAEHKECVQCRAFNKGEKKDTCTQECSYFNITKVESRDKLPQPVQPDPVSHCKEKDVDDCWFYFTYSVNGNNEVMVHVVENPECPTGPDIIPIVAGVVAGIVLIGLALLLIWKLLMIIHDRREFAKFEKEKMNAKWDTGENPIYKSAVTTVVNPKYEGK
Sequence (P13612 whole entry): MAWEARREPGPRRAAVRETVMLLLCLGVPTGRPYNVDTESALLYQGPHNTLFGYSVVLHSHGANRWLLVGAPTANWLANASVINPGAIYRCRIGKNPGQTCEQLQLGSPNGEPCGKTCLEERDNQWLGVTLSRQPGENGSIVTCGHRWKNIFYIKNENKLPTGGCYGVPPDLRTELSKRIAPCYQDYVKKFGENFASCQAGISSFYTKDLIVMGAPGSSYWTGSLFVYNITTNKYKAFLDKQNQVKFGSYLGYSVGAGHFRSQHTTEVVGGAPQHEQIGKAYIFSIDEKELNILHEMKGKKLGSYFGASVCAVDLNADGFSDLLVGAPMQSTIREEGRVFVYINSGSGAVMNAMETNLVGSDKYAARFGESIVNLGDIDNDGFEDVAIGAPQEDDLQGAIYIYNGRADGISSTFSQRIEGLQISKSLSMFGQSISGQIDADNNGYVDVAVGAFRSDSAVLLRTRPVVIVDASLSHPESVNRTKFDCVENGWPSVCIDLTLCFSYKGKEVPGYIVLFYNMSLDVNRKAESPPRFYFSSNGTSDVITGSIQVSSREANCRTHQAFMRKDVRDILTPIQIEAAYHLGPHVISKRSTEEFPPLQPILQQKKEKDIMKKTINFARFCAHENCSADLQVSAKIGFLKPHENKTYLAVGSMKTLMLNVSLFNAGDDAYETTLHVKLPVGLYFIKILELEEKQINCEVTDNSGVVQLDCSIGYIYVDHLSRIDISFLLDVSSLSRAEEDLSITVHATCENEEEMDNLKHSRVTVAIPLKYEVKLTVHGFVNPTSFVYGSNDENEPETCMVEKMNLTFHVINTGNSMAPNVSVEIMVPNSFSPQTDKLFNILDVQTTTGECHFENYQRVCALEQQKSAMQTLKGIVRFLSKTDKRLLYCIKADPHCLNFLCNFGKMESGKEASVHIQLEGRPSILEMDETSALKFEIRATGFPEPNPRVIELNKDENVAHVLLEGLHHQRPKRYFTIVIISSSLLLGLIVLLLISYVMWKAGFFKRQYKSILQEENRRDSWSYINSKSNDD
readout_name: pIC50
pIC50 is a log-scale quantity: -log10 of the concentration expressed in molar.

Task: # return recorded pIC50 for entry COc1nc(N[C@@H](Cc2ccc(NC(=O)c3c(Cl)cncc3Cl)cc2)C(=O)O)nc(Oc2ccccc2)n1
Output: 7.52

Task: Tell me its pIC50 given CCN(CC)c1nc(N[C@@H](Cc2ccc(NC(=O)c3c(Cl)cncc3Cl)cc2)C(=O)O)nc(OC)n1 as the entry.
Output: 7.15

Task: Read off the recorded pIC50 for COc1nc(N[C@@H](Cc2ccc(NC(=O)c3c(Cl)cncc3Cl)cc2)C(=O)O)nc(N(C)C)n1
Output: 7.80

Task: Let me know recorded pIC50 for COc1nc(N[C@@H](Cc2ccc(NC(=O)c3c(F)cccc3C(F)(F)F)cc2)C(=O)O)nc(OC)n1 , thanks.
Output: 7.30

Task: // fetch pIC50 given entry COc1nc(N[C@@H](Cc2ccc(NC(=O)c3c(Cl)cccc3Cl)cc2)C(=O)O)nc(OC)n1
Output: 7.52

Task: Specify reported pIC50 for the compound shown: CCCOc1nc(N[C@@H](Cc2ccc(NC(=O)c3c(Cl)cncc3Cl)cc2)C(=O)O)nc(OC)n1
Output: 7.35

Task: Identify measured pIC50 corresponding to CC(=O)N1CSC[C@@H]1C(=O)N[C@@H](Cc1ccc(NC(=O)c2c(Cl)cncc2Cl)cc1)C(=O)O
Output: 9.22

Task: Write down pIC50 measured for item COc1nc(N[C@@H](Cc2ccc(NC(=O)c3c(Cl)cncc3Cl)cc2)C(=O)O)nc(N2CCOCC2)n1
Output: 7.85

Task: Tell me pIC50 reported for COc1nc(N[C@@H](Cc2ccc(NC(=O)c3c(Cl)cncc3Cl)cc2)C(=O)O)nc(OC)n1
Output: 8.10

Task: Dear colleague, please send me the reported pIC50 for CCCNc1nc(N[C@@H](Cc2ccc(NC(=O)c3c(Cl)cncc3Cl)cc2)C(=O)O)nc(OC)n1 when you can.
Output: 7.60

Task: Consider the compound COc1nc(N[C@@H](Cc2ccc(OCc3c(Cl)cccc3Cl)cc2)C(=O)O)nc(OC)n1 . State its measured pIC50.
Output: 5.82

Task: Input COc1nc(N[C@@H](Cc2ccc(NC(=O)c3c(Cl)cncc3Cl)cc2)C(=O)O)nc(N2CCNCC2)n1 , output reported pIC50.
Output: 7.60

Task: Note down pIC50 recorded for CCCOc1nc(N[C@@H](Cc2ccc(NC(=O)c3c(Cl)cncc3Cl)cc2)C(=O)O)nc(OCCC)n1
Output: 7.30

Task: For the compound COc1nc(NCCO)nc(N[C@@H](Cc2ccc(NC(=O)c3c(Cl)cncc3Cl)cc2)C(=O)O)n1 , give its measured pIC50 value.
Output: 8.15

Task: Quick one: give measured pIC50 for COc1nc(N[C@@H](Cc2ccc(N(C)C(=O)c3c(Cl)cncc3Cl)cc2)C(=O)O)nc(OC)n1
Output: 5.26

Task: Identify the reported pIC50 for the following entry. COc1nc(N[C@@H](Cc2ccc(NC(=O)c3c(Cl)cncc3Cl)cc2)C(=O)O)nc(N2CCC(C(=O)O)CC2)n1
Output: 8.22

Task: For the compound O=C(Nc1ccc(C[C@H](NC(=O)c2c(Cl)cncc2Cl)C(=O)O)cc1)c1c(Cl)cncc1Cl , give its measured pIC50 value.
Output: 9.05

----------
biological target: Integrin alpha-4/beta-1 (Homo sapiens, UniProt P05556+P13612); assay: Inhibition of VLA-4 expressed in Jurkat cell line, in a cell-based adhesion assay.
Can you tell me pIC50 for the items I'm about to list?
Answer as the number alone; pIC50 is minus log10 of concentration in mol/L.

Task: Given CCCOc1nc(N[C@@H](Cc2ccc(NC(=O)c3c(Cl)cncc3Cl)cc2)C(=O)O)nc(OCCC)n1 , respond with its pIC50.
Output: 6.13

Task: # return recorded pIC50 for input CCN(CC)c1nc(N[C@@H](Cc2ccc(NC(=O)c3c(Cl)cncc3Cl)cc2)C(=O)O)nc(OC)n1
Output: 5.79

Task: Answer with the recorded pIC50 of CC(=O)N1CSC[C@@H]1C(=O)N[C@@H](Cc1ccc(NC(=O)c2c(Cl)cncc2Cl)cc1)C(=O)O only.
Output: 9.30

Task: Look up and report measured pIC50 for this entry: COc1nc(N[C@@H](Cc2ccc(NC(=O)c3c(Cl)cncc3Cl)cc2)C(=O)O)nc(OC)n1
Output: 6.05

----------
target: Integrin alpha-4/beta-1 (Homo sapiens, UniProt P05556+P13612); test: Inhibition of VLA-4 expressed in Jurkat cell line, in a cell-based adhesion assay.
Assignment: determine reported IC50 for the given compounds.
Record the value in nM, omitting the unit from your answer.

Task: Given COc1nc(N[C@@H](Cc2ccc(NC(=O)c3c(Cl)cncc3Cl)cc2)C(=O)O)nc(N(C)C)n1 , respond with its IC50.
Output: 590

Task: Provide IC50 value for the following compound: COc1nc(N[C@@H](Cc2ccc(NC(=O)c3c(F)cccc3C(F)(F)F)cc2)C(=O)O)nc(OC)n1
Output: 4600

Task: Determine from records and report IC50 for CCCNc1nc(N[C@@H](Cc2ccc(NC(=O)c3c(Cl)cncc3Cl)cc2)C(=O)O)nc(OC)n1
Output: 740

Task: Entry COc1nc(N[C@@H](Cc2ccc(NC(=O)c3c(Cl)cncc3Cl)cc2)C(=O)O)nc(N2CCOCC2)n1 needs its IC50 filled in; supply it.
Output: 510

Task: Quickly give me recorded IC50 for O=C(Nc1ccc(C[C@H](NC(=O)c2c(Cl)cncc2Cl)C(=O)O)cc1)c1c(Cl)cncc1Cl
Output: 0.5

Task: Look up and state reported IC50 for CCCOc1nc(N[C@@H](Cc2ccc(NC(=O)c3c(Cl)cncc3Cl)cc2)C(=O)O)nc(OC)n1
Output: 300

Task: For the compound COc1nc(N[C@@H](Cc2ccc(NC(=O)c3c(Cl)cncc3Cl)cc2)C(=O)O)nc(N2CCNCC2)n1 , give its measured IC50 value.
Output: 1000

Task: Quick one: give measured IC50 for COc1nc(N[C@@H](Cc2ccc(NC(=O)c3c(Cl)cccc3Cl)cc2)C(=O)O)nc(OC)n1
Output: 4000

----------
molecular target: Integrin alpha-4/beta-1 (Homo sapiens, UniProt P05556+P13612); test: Inhibition of VLA-4 expressed in Jurkat cell line, in a cell-based adhesion assay.
readout_name: pIC50
# reply with the number alone; pIC50 is -log10 of concentration in mol/L

Task: Item COc1nc(N[C@@H](Cc2ccc(NC(=O)c3c(Cl)cncc3Cl)cc2)C(=O)O)nc(N2CCC(C(=O)O)CC2)n1 : provide pIC50
Output: 6.62

Task: Return pIC50 for the following compound: COc1nc(NCCO)nc(N[C@@H](Cc2ccc(NC(=O)c3c(Cl)cncc3Cl)cc2)C(=O)O)n1
Output: 6.49

Task: Tell me its pIC50 given COc1nc(N[C@@H](Cc2ccc(NC(=O)c3c(Cl)cncc3Cl)cc2)C(=O)O)nc(Oc2ccccc2)n1 as the entry.
Output: 6.49

----------
assay: Compound was evaluated for rate of clearance by using IPRL (Isolated Perfused Rat Liver); assay type: ADME
Answer each item with its documented k el.
# output: bare number, implied unit s⁻¹

Task: Quote k el reported for O=C(Nc1ccc(C[C@H](NC(=O)c2c(Cl)cncc2Cl)C(=O)O)cc1)c1c(Cl)cncc1Cl please.
Output: 0.00108

Task: Using known records, supply k el for COc1nc(N[C@@H](Cc2ccc(NC(=O)c3c(Cl)cncc3Cl)cc2)C(=O)O)nc(N(C)C)n1
Output: 0.000306

Task: Give the reported value of k el for this record: O=C(Nc1ccc(C[C@H](Nc2ccc([N+](=O)[O-])cn2)C(=O)O)cc1)c1c(Cl)cncc1Cl
Output: 0.000278

Task: # return recorded k el for entry COc1nc(N[C@@H](Cc2ccc(NC(=O)c3c(F)cccc3C(F)(F)F)cc2)C(=O)O)nc(OC)n1
Output: 0.000167

Task: Find the measured k el of CCCNc1nc(N[C@@H](Cc2ccc(NC(=O)c3c(Cl)cncc3Cl)cc2)C(=O)O)nc(OC)n1 and report it.
Output: 0.000667

Task: Using the record for CC(=O)N1CSC[C@@H]1C(=O)N[C@@H](Cc1ccc(NC(=O)c2c(Cl)cncc2Cl)cc1)C(=O)O , state its measured k el.
Output: 0.00103

Task: Identify measured k el corresponding to COc1nc(N[C@@H](Cc2ccc(NC(=O)c3c(Cl)cccc3Cl)cc2)C(=O)O)nc(OC)n1
Output: 0.000194

Task: Kindly indicate its recorded k el. Item: COc1nc(NCCO)nc(N[C@@H](Cc2ccc(NC(=O)c3c(Cl)cncc3Cl)cc2)C(=O)O)n1
Output: 0.0005

Hello, the source for this data is ChEMBL document CHEMBL1135143, in case you need it.
